Test system: SR
ASSAY_EXPLANATION: NCI tumour cell line growth inhibition, 48 h
Calls of active or inactive are those of the source. No stated cut-off is given here; in the data, active = GI50 up to about 1.1 µM and inactive = higher.
Could you please pick one outcome from this set? active, inactive

[
  {
    "MOLECULE": "CCCCC1Cc2ccccc2-c2nc3ccccc3n21 (stereo not drawn)",
    "LABEL_CLASS": "inactive"
  },
  {
    "MOLECULE": "N#C[BH2-][n+]1cn(C2CC(O)C(COP(=O)(O)OC3CC(n4cnc5c(N)ncnc54)OC3CO)O2)c2nc(N)[nH]c(=O)c21 (stereo not drawn)",
    "LABEL_CLASS": "inactive"
  }
]

Lookup: Which result was noted for this molecule in the test: c1cc(-c2cscc2-c2ccsc2)cs1
Found: inactive

Lookup: Which result was noted for this molecule in the test: COc1cc(-c2[nH]ccc2Cl)oc1C1=C2N=C3C=C2C(C(C)C)C1CCCCCCCC3 (stereo not drawn)
Found: active

Lookup: Which result was noted for this molecule in the test: COc1ccc(/N=N/c2ccc3oc(=O)c(C(=O)Nc4ccccc4)cc3c2)cc1
Found: inactive

Lookup: Which result was noted for this molecule in the test: Cc1cc(SCC(=O)c2ccc(Br)cc2)cc(C)[o+]1
Found: inactive

Lookup: Which result was noted for this molecule in the test: COC(=O)/C(C#N)=C(\Nc1ccccc1)N1CCOCC1
Found: inactive

Lookup: Which result was noted for this molecule in the test: C=C1C(=O)OC2/C=C(/C)C(OC(C)=O)C/C=C(\C)C(OC(=O)C3(C)OC3C)C(O)C12 (stereo not drawn)
Found: inactive

Lookup: Which result was noted for this molecule in the test: COc1ccc(N2C(=O)C3c4[nH]c5ccccc5c4C4c5ccccc5CC4C3C2=O)cc1 (stereo not drawn)
Found: inactive

Lookup: Which result was noted for this molecule in the test: N#Cc1cn(C2OC(CO)C(O)C2O)c2ncnc(N)c12 (stereo not drawn)
Found: active

Lookup: Which result was noted for this molecule in the test: CC(C)(C)C#C[P+](c1ccccc1)(c1ccccc1)c1ccccc1
Found: active

Lookup: Which result was noted for this molecule in the test: Cc1cccc(/C=C2\CCCc3ccccc3C2=O)c1
Found: inactive

Lookup: Which result was noted for this molecule in the test: N=C(N)CCNC(=O)C1CCC(N)=N1 (stereo not drawn)
Found: inactive

Lookup: Which result was noted for this molecule in the test: O=c1c2cc(Cl)ccc2[nH]c2cc(O)cc(O)c12
Found: inactive

====

Tested on: ACHN
ASSAY_EXPLANATION: NCI tumour cell line growth inhibition, 48 h
Calls of active or inactive are those of the source. Cut-off read from the data, not from the text of the source: active = GI50 up to about 1.1 µM and inactive = higher.
Could you please pick one outcome from this set? label 1 = active, label 0 = inactive

Solved entries (count: 8):
[
  {
    "COMPOUND": "CC(=O)Nc1ccc(/C=C/C(=O)c2sc(-c3nc(C)c(C(=O)/C=C/c4ccc(NC(C)=O)cc4)s3)nc2C)cc1",
    "LABEL_CLASS": "label 0"
  },
  {
    "COMPOUND": "Cc1cccc(C(C)(C)C)c1NC(=O)/C(Cc1nc2ccc([N+](=O)[O-])cc2nc1O)=N\\NC(=O)C[N+](C)(C)C",
    "LABEL_CLASS": "label 0"
  },
  {
    "COMPOUND": "O=C(O)CCCc1ccc2ccccc2c1",
    "LABEL_CLASS": "label 0"
  },
  {
    "COMPOUND": "O=CNNC(=O)Nc1ccc(Cl)cc1",
    "LABEL_CLASS": "label 0"
  },
  {
    "COMPOUND": "Cc1cc2c(c(C(N)=O)c1C)-c1cccc(Cl)c1C2=O",
    "LABEL_CLASS": "label 0"
  },
  {
    "COMPOUND": "COc1ccc2nc3c(c(NCCCN(C)C)c2c1)CCCC3",
    "LABEL_CLASS": "label 0"
  },
  {
    "COMPOUND": "O=C1NC(=O)C2C1C1C=C3c4ccccc4N(c4ccccc4)C32[C@H]2C(=O)NC(=O)[C@@H]12 (stereo partly specified)",
    "LABEL_CLASS": "label 0"
  },
  {
    "COMPOUND": "Cc1c(-c2nnc(-c3ccccc3)o2)c(=O)n(-c2ccccc2)n1C",
    "LABEL_CLASS": "label 0"
  }
]

Lookup: Which result was noted for this compound in the test: O=c1[nH]cc(C(F)(C(F)(F)F)C(F)(F)F)c(=O)[nH]1
Found: label 0

Lookup: Which result was noted for this compound in the test: O=C1c2ccccc2C(=O)N1CCCC(=O)n1cc(F)c(=O)[nH]c1=O
Found: label 0

Lookup: Which result was noted for this compound in the test: COC(=O)C1CC/C(=N/c2ccc(C)cc2C)N1 (stereo unspecified)
Found: label 0

Lookup: Which result was noted for this compound in the test: NC(=O)c1csc(C2O[C@@H](COP(=O)(O)OP(=O)(O)OC[C@H]3OC(n4cnc5c(N)ncnc54)[C@H](O)[C@@H]3O)[C@H](O)[C@@H]2O)n1 (stereo partly specified)
Found: label 0

Lookup: Which result was noted for this compound in the test: Cc1cc(C)c(N[S+]([O-])c2ccc(Cl)cc2)c(C)c1 (stereo unspecified)
Found: label 0

====

Tested on: MDA-N
ASSAY_EXPLANATION: NCI tumour cell line growth inhibition, 48 h
Calls of active or inactive are those of the source. No stated cut-off is given here; in the data, active = GI50 up to about 1.1 µM and inactive = higher.
REPORTED_PROPERTY: GI50

[
  {
    "COMPOUND": "O=C1OC(c2ccccc2)N/C1=C\\c1ccc2c(c1)OCO2 (stereo not drawn)",
    "ENDPOINT_VALUE": "> 75.9 µM (inactive)"
  }
]

For each of the compounds below, state GI50.
1. CC1=CC(=O)[C@@H](O)[C@]2(C)[C@H]3[C@@]4(O)OC[C@]35[C@H]([C@@H](C)[C@H]4O)[C@@H](OC(=O)C(C)(C)CO)C(=O)O[C@@H]5C[C@@H]12
2. O=C(CC(O)(C(F)(F)F)C(F)(F)F)c1cc(CC(=O)C(O)(C(F)(F)F)C(F)(F)F)cc(CC(=O)C(O)(C(F)(F)F)C(F)(F)F)c1
3. O=C(Nc1ccccc1)C(=O)C(C(=O)c1ccccc1)C(c1ccccc1)c1ccccc1 (stereo not drawn)
4. NS(=O)(=O)c1cc(Cl)c(NC(=S)NC(=O)Nc2ccc(Cl)c(Cl)c2)c(Cl)c1
5. CSC1=NC(C(N)=O)C(N)N1C (stereo not drawn)
6. O=C1CCC[C@@H]2NC[C@@H](c3ccc4c(c3)OCO4)[C@H]12
7. CCCC(CC)c1c(O)c(O)c(C(CC)CCC)c(C(CC)CCC)c1C(CC)CCC (stereo not drawn)
8. Cc1nc2c(=O)n(C)c(=O)n(C)c2o1

Found:
["0.0769 µM (active)", "2.64 µM (inactive)", "> 10 µM (inactive)", "33.6 µM (inactive)", "> 100 µM (inactive)", "> 25 µM (inactive)", "> 10 µM (inactive)", "> 100 µM (inactive)"]

====

System: CCRF-CEM
ASSAY_EXPLANATION: NCI tumour cell line growth inhibition, 48 h
Calls of active or inactive are those of the source. No stated cut-off is given here; in the data, active = GI50 up to about 1.1 µM and inactive = higher.
REPORTED_PROPERTY: GI50

For each of the molecules below, state GI50.
1. OC[C@H]1O[C@@H]2O[C@@](COCc3ccccc3)([C@H](OCc3ccccc3)[C@H]2O)[C@@H]1OCc1ccccc1
2. C=CC1(O)CCCC=C1COCc1ccccc1 (stereo not drawn)
3. O=C(Nc1ccc(Cl)cc1)/C(Cc1cccc[n+]1[O-])=N\Nc1ccc([N+](=O)[O-])cc1[N+](=O)[O-]
4. Cc1cc(N(CCC#N)CCC#N)ccc1C(/N=N/c1ccccc1)=N\NC(=O)c1cc(Cl)ccc1O
5. COC(=O)C(=O)C(C(C)=O)C(=O)C(=O)Nc1ccc(C)cc1C (stereo not drawn)

Found:
1. 13.4 µM (inactive)
2. 43.6 µM (inactive)
3. > 100 µM (inactive)
4. 16.6 µM (inactive)
5. > 100 µM (inactive)

For each of the molecules below, state GI50.
1. O=C(NNS(=O)(=O)c1ccccc1)c1csc(NC(=S)NC2CCCCC2)n1
2. O=c1c2cc(Cl)ccc2[nH]c2cc(O)cc(O)c12

Found:
1: 39.6 µM (inactive); 2: > 10 µM (inactive)

====

Test system: OVCAR-5
ASSAY_EXPLANATION: NCI tumour cell line growth inhibition, 48 h
Active and inactive are the calls of the source. Rule as the data show it: active = GI50 up to about 1.1 µM and inactive = higher.
Could you please pick one outcome from this set? active, inactive

Solved entries (count: 2):
[
  {
    "MOLECULE": "O=[As](O)(O)c1ccc(Cc2ccc([As](=O)(O)O)cc2)cc1",
    "LABEL_CLASS": "inactive"
  },
  {
    "MOLECULE": "CCOC(=O)c1c(O)nc2cccc3c2c1-c1cccnc1S3",
    "LABEL_CLASS": "inactive"
  }
]

Lookup: Which result was noted for this molecule in the test: CCCCCCCCCC1(N=[N+]=[N-])C(=O)c2ccccc2N(C)C1=O (centres undefined)
Found: inactive

Lookup: Which result was noted for this molecule in the test: COc1ccc2nc3c(c(NCCCN(C)C)c2c1)CCCC3
Found: inactive

Lookup: Which result was noted for this molecule in the test: CC(C)NCC(O)COC(=O)c1cccs1 (centres undefined)
Found: inactive

Lookup: Which result was noted for this molecule in the test: O=CN1CCC23CC(O)CCC2C1Cc1cc(Oc2nnnn2-c2ccccc2)cc(O)c13 (centres undefined)
Found: inactive

Lookup: Which result was noted for this molecule in the test: Nc1ccc2nc(-c3cccc(Cl)c3)cc(O)c2c1
Found: inactive

Lookup: Which result was noted for this molecule in the test: CC#CC(O)(C(=O)OC1CC(C)N(C)C(C)(C)C1)C1CCCC1 (centres undefined)
Found: inactive

Lookup: Which result was noted for this molecule in the test: CCOC(=O)c1c(C)nc2c(c1-c1cn(-c3ccccc3)nc1-c1ccccc1)C(=O)c1ccccc1-2
Found: inactive

Lookup: Which result was noted for this molecule in the test: CCOP(=O)(CN1CCNCCNCC1)OCC
Found: inactive

Lookup: Which result was noted for this molecule in the test: N=C(N)SCc1ccc2c(c1)S(=O)(=O)c1ccccc1O2
Found: inactive

Lookup: Which result was noted for this molecule in the test: CC(=O)O[C@@H]1C=C(C)[C@H](CBr)O[C@@]2(C)CC[C@H](Br)C(C)(C)[C@H]12
Found: inactive

Lookup: Which result was noted for this molecule in the test: CC(=O)O[C@@H]1C2=C(C3=C([O-])C4=CC=CC(=O)C4C(=O)C3=C2[N+]#N)[C@H](OC(C)=O)[C@@H](OC(C)=O)[C@]1(C)O (some centres undefined)
Found: active

Lookup: Which result was noted for this molecule in the test: O=C(O)c1cc2ccccc2oc1=O [COUMARIN-3-CARBOXYLIC ACID]
Found: inactive
